# Cholinesterase (Equus caballus, UniProt P81908): IC50 values follow
# Sequence (P81908 whole entry): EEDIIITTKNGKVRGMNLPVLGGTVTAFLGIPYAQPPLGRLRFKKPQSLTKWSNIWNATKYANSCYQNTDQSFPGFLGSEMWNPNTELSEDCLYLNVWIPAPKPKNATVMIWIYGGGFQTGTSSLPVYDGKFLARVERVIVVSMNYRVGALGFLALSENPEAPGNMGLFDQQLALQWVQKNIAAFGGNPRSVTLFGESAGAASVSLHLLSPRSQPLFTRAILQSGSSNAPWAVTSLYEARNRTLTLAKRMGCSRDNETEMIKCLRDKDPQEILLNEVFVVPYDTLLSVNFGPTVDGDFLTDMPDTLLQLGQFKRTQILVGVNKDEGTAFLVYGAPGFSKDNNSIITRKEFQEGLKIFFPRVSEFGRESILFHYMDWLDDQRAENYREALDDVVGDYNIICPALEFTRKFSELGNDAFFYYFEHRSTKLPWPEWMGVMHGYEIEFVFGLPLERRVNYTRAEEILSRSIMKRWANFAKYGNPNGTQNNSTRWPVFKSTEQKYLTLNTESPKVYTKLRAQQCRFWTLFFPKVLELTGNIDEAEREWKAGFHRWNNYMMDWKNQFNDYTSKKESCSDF
Note: unit µM is implicit; provide only the numeric part.

The examples below pair each entry with its known result.
- line_notation: "Cc1cccc(NCC(=O)Nc2ccc(-c3nc(-c4ccnc(Nc5ccc(OC(F)(F)F)cc5)c4)no3)cc2)c1"
  observed_measurement: 20.2
- line_notation: "O=C(CNc1ccc(Br)cc1)Nc1ccc(-c2nc(-c3ccnc(Nc4ccc(OC(F)(F)F)cc4)c3)no2)cc1"
  observed_measurement: 10.5
- line_notation: "O=C(CNCc1ccccc1)Nc1ccc(-c2nc(-c3ccnc(Nc4ccc(OC(F)(F)F)cc4)c3)no2)cc1"
  observed_measurement: 39.2

# input I have this compound here, `O=C(CNc1ccc(F)cc1)Nc1ccc(-c2nc(-c3ccnc(Nc4ccc(OC(F)(F)F)cc4)c3)no2)cc1` , and I need its recorded IC50.
# output 1.28

# input Can you check `O=C(CNc1ccc(Cl)cc1)Nc1ccc(-c2nc(-c3ccnc(Nc4ccc(OC(F)(F)F)cc4)c3)no2)cc1` next?
# output 7.39

# input Also, `Cc1ccc(NCC(=O)Nc2ccc(-c3nc(-c4ccnc(Nc5ccc(OC(F)(F)F)cc5)c4)no3)cc2)cc1` please.
# output 19.3

# input Another compound: `O=C(CNc1ccc(C(F)(F)F)cc1)Nc1ccc(-c2nc(-c3ccnc(Nc4ccc(OC(F)(F)F)cc4)c3)no2)cc1`
# output 1.88

# input Please give the result for `O=C(CNC1CCCC1)Nc1ccc(-c2nc(-c3ccnc(Nc4ccc(OC(F)(F)F)cc4)c3)no2)cc1` too.
# output 16.6

# input Thanks! And `O=C(CNCc1ccc(F)cc1)Nc1ccc(-c2nc(-c3ccnc(Nc4ccc(OC(F)(F)F)cc4)c3)no2)cc1` ?
# output 37.8

# input Lookup `O=C(CNc1cccc(Cl)c1)Nc1ccc(-c2nc(-c3ccnc(Nc4ccc(OC(F)(F)F)cc4)c3)no2)cc1`
# output 12.8

# input Again, but for `CCCCNCC(=O)Nc1ccc(-c2nc(-c3ccnc(Nc4ccc(OC(F)(F)F)cc4)c3)no2)cc1`
# output 15.7

# input Now consider `O=C(CNc1ccccc1)Nc1ccc(-c2nc(-c3ccnc(Nc4ccc(OC(F)(F)F)cc4)c3)no2)cc1` and answer again.
# output 14.1

# input # repeat for `Cc1ccccc1NCC(=O)Nc1ccc(-c2nc(-c3ccnc(Nc4ccc(OC(F)(F)F)cc4)c3)no2)cc1`
# output 25.8

# input Queued: `COc1cccc(NCC(=O)Nc2ccc(-c3nc(-c4ccnc(Nc5ccc(OC(F)(F)F)cc5)c4)no3)cc2)c1`
# output 33.5

# input Note, next up: `O=C(CNCc1ccc(C(F)(F)F)cc1)Nc1ccc(-c2nc(-c3ccnc(Nc4ccc(OC(F)(F)F)cc4)c3)no2)cc1`
# output 30.9

# input Repeat with `CCCNCC(=O)Nc1ccc(-c2nc(-c3ccnc(Nc4ccc(OC(F)(F)F)cc4)c3)no2)cc1`
# output 23.3

# input Cool, now `CC(C)CNCC(=O)Nc1ccc(-c2nc(-c3ccnc(Nc4ccc(OC(F)(F)F)cc4)c3)no2)cc1`
# output 29.4
